Provide the recorded PAMPA Permeability (×10^6 cm/s) for the entries that follow.
Assay: PAMPA permeability
Assay type: in vitro ADME
Details: PAMPA

Exercise: Which measured PAMPA Permeability (×10^6 cm/s) value corresponds to Cc1cc(S(C)(=O)=O)ccc1-n1c(=O)ccc2cnc3ccc(-c4ccc(Cl)cc4)cc3c21 ?
Solution: <1 ×10^6 cm/s

Exercise: Okay, and Cc1ccc(C#N)cc1-n1c(=O)ccc2cnc3ccc(-c4ccc(Cl)cc4)cc3c21 ?
Solution: 621.2 ×10^6 cm/s

Exercise: Okay, and CCN1Cc2cc(-n3c(=O)ccc4cnc5ccc(-c6ccc(CN(C)C)cc6)cc5c43)ccc2C1=O ?
Solution: 289.4 ×10^6 cm/s

Exercise: Okay, and CS(=O)(=O)c1ccc(-n2c(=O)ccc3cnc4ccc(-c5ccc(Cl)c(C(N)=O)c5)cc4c32)cc1 ?
Solution: 43.1 ×10^6 cm/s

Exercise: Okay, and CS(=O)(=O)c1ccc(-n2c(=O)ccc3cnc4ccc(-c5ccc(Cl)c(C(=O)O)c5)cc4c32)cc1 ?
Solution: <1.0 ×10^6 cm/s

Exercise: Okay, and O=C1NCc2cc(-n3c(=O)ccc4cnc5ccc(-c6ccc(CN7CCCC7)cc6)cc5c43)ccc21 ?
Solution: 1.2 ×10^6 cm/s

Exercise: Okay, and O=c1ccc2cnc3ccc(-c4ccc(Cl)cc4)cc3c2n1-c1ccc(S(=O)(=O)N2CCOCC2)cc1 ?
Solution: 32.5 ×10^6 cm/s
